These measurements were taken from ChEMBL document CHEMBL2177094.

# Test system: Blood
# PROTOCOL_DETAILS: Drug uptake in overnight fasted Sprague-Dawley rat blood at 0.7 to 1.4 MBq, iv at 120 mins
# Type: ADME, organism-based
# CONDITION_CONTEXT: in vivo, 2 h
ASSAY_READOUT: Drug uptake (%IDKg/g)
Kindly answer with a numeric value in %IDKg/g, unit omitted.

For O=C(O)CCSCCCCCCCCCCCC[18F] , write its Drug uptake.
0.0105

Using the record for O=C(O)CCCCSCCCCCCCCCCCC[18F] , state its measured Drug uptake.
0.0241

Tell me its Drug uptake given O=C(O)CCSCCCC/C=C\CCCCCCCC[18F] as the entry.
0.0185

State, in one line, measured Drug uptake of O=C(O)CCSCCCCCCCCCCCCCC[18F]
0.0098
